// provenance: ChEMBL document CHEMBL5058577

- Tested on: U2OS
- ASSAY EXPLANATION: Multiplex assay against U2OS
- Assay type: toxicity, cell-based
- CONDITION CONTEXT: human, 48 h, 1 µM, compound concentration 1 uM, replicate 2
Item-by-item account of Population Tubulin-Different-Phenotype (%)
READOUT NAME: Population Tubulin-Different-Phenotype (%)

[[record]]
compound = "CCOc1c2c(c(OCC)c3ncccc13)CN(c1ccc(CS(=O)(=O)NC(=O)Cc3ccccc3OC)cc1C)C2=O"
result = "5%"

[[record]]
compound = "Cc1ccc(/C(=C\\CN2CCCC2)c2ccccn2)cc1"
result = "4%"

[[record]]
compound = "CC(C)(C)c1ccc(S(=O)(=O)Nc2ccc(Cl)cc2C(=O)c2cc[n+]([O-])cc2)cc1"
result = "2%"

[[record]]
compound = "N#Cc1c(N)nc(SCc2csc(-c3ccc(Cl)cc3)n2)c(C#N)c1-c1ccc(OCCO)cc1"
result = "5%"

[[record]]
compound = "CN1CCN2c3ncccc3Cc3ccccc3C2C1 (stereo not given)"
result = "1%"


====

- Tested on: HEK-293T
- ASSAY EXPLANATION: Multiplex assay against HEK293T
- Format: toxicity, cell-based
- CONDITION CONTEXT: human, 48 h, 1 µM, compound concentration 1 uM, replicate 2
Item-by-item account of Population Mitotic Cells (%)
READOUT NAME: Population Mitotic Cells (%)

[[record]]
compound = "Cl.Clc1ccc2nsnc2c1NC1=NCCN1 [TIZANIDINE HYDROCHLORIDE]"
readout_name = "Population Mitotic Cells (%)"
numeric_value = 66

[[record]]
compound = "O=C1COc2nccc(-c3ccccc3F)c2CN1Cc1cc(C(F)(F)F)cc(C(F)(F)F)c1"
readout_name = "Population Mitotic Cells (%)"
numeric_value = 61

[[record]]
compound = "CCOc1c2c(c(OCC)c3ncccc13)CN(c1ccc(CS(=O)(=O)NC(=O)Cc3ccccc3OC)cc1C)C2=O"
readout_name = "Population Mitotic Cells (%)"
numeric_value = 66

[[record]]
compound = "Cc1ccccc1C(=O)Nc1ccc(C(=O)N2CCCC(N(C)C)c3ccccc32)cc1.Cl (centres undefined)"
readout_name = "Population Mitotic Cells (%)"
numeric_value = 65

[[record]]
compound = "CNC[C@H](O)c1ccc(O)c(O)c1 [EPINEPHRINE]"
readout_name = "Population Mitotic Cells (%)"
numeric_value = 64

[[record]]
compound = "COc1cc(NC(=O)CCN2CCC(OC(=O)Nc3ccccc3-c3ccccc3)CC2)c(Cl)cc1CNC[C@H](O)c1ccc(O)c2[nH]c(=O)ccc12 [BATEFENTEROL]"
readout_name = "Population Mitotic Cells (%)"
numeric_value = 48

[[record]]
compound = "CC(C)(C)c1ccc(S(=O)(=O)Nc2ccc(Cl)cc2C(=O)c2cc[n+]([O-])cc2)cc1 [VERCIRNON]"
readout_name = "Population Mitotic Cells (%)"
numeric_value = 67

[[record]]
compound = "c1cc(OCCCN2CCCCC2)ccc1CN1CCCCC1 [JNJ-5207852]"
readout_name = "Population Mitotic Cells (%)"
numeric_value = 76

[[record]]
compound = "O=C(NCCO)c1cccc(-c2cc(Nc3ccc(OC(F)(F)F)cc3)ncn2)c1"
readout_name = "Population Mitotic Cells (%)"
numeric_value = 62


====

- Test system: HEK-293T
- ASSAY EXPLANATION: Multiplex assay against HEK293T
- Type: toxicity, cell-based
- CONDITION CONTEXT: human, 48 h, 1 µM, compound concentration 1 uM, replicate 2
The label is Criterion met for Total Cell Count below 600 and Criterion not met for Total Cell Count equal to or exceeding 600.

[[record]]
compound = "O=S(=O)(c1ccccc1)c1cnc2c(N3CCNCC3)cccc2c1 [INTEPIRDINE]"
label_class = "Criterion not met"

[[record]]
compound = "O=C(O)Cc1ccccc1Nc1c(Cl)cccc1Cl"
label_class = "Criterion not met"

[[record]]
compound = "CN1CCN(c2nc3cc(C(F)(F)F)ccc3n3cccc23)CC1.O=C(O)/C=C\\C(=O)O.O=C(O)/C=C\\C(=O)O"
label_class = "Criterion met"

[[record]]
compound = "O=C(O)c1cc2ccccc2c(Cc2c(O)c(C(=O)O)cc3ccccc23)c1O"
label_class = "Criterion met"

[[record]]
compound = "CCCN1CCC[C@@H]2Cc3n[nH]cc3C[C@H]21.Cl [QUINPIROLE HYDROCHLORIDE]"
label_class = "Criterion not met"


====

- Test system: Fibroblast
- ASSAY EXPLANATION: Multiplex assay against human fibroblast
- Format: toxicity, cell-based
- CONDITION CONTEXT: 12 h, 10 µM, compound concentration 10 uM, replicate 1
READOUT NAME: Population Normal (%)

[[record]]
molecule = "CCCN1CCC[C@@H]2Cc3n[nH]cc3C[C@H]21.Cl [QUINPIROLE HYDROCHLORIDE]"
target_entity = "Fibroblast"
unit_of_measure = "%"
numeric_value = 95

[[record]]
molecule = "CC[C@H]1OC(=O)[C@H](C)[C@@H](O[C@H]2C[C@@](C)(OC)[C@@H](O)[C@H](C)O2)[C@H](C)[C@@H](O[C@@H]2O[C@H](C)C[C@H](N(C)C)[C@H]2O)[C@@]2(C)CC(C)=C(O2)[C@H](C)[C@@H](O)[C@]1(C)O"
target_entity = "Fibroblast"
unit_of_measure = "%"
numeric_value = 96

[[record]]
molecule = "O=S(=O)(c1ccccc1)c1cnc2c(N3CCNCC3)cccc2c1 [INTEPIRDINE]"
target_entity = "Fibroblast"
unit_of_measure = "%"
numeric_value = 98

[[record]]
molecule = "CN1CCN2c3ncccc3Cc3ccccc3C2C1 (stereo not drawn)"
target_entity = "Fibroblast"
unit_of_measure = "%"
numeric_value = 98

[[record]]
molecule = "c1cc(OCCCN2CCCCC2)ccc1CN1CCCCC1"
target_entity = "Fibroblast"
unit_of_measure = "%"
numeric_value = 98

[[record]]
molecule = "CN(C)c1ccnc2sc3c(=O)n(N4CCCCCC4)cnc3c12"
target_entity = "Fibroblast"
unit_of_measure = "%"
numeric_value = 94

[[record]]
molecule = "COc1cc(C(=O)N(CCCc2ccccc2)Cc2ccc(CC(=O)O)cc2)cc(OC)c1C"
target_entity = "Fibroblast"
unit_of_measure = "%"
numeric_value = 97

[[record]]
molecule = "C[C@H]1[C@H]2CC[C@H]3[C@@H]4CC=C5C[C@@H](N(C)C)CC[C@]5(C)[C@H]4CC[C@]23CN1C"
target_entity = "Fibroblast"
unit_of_measure = "%"
numeric_value = 96


====

- Tested on: HEK-293T
- ASSAY EXPLANATION: Multiplex assay against HEK293T
- Assay type: toxicity, cell-based
- CONDITION CONTEXT: human, 24 h, 10 µM, compound concentration 10 uM, replicate 1
Note to self: values exactly at 60% are true (1). So Population Mitotic Cells (%) at or above 60% is true (1), below is false (0).

[[record]]
compound = "CCOc1c2c(c(OCC)c3ncccc13)CN(c1ccc(CS(=O)(=O)NC(=O)Cc3ccccc3OC)cc1C)C2=O"
target_entity = "HEK-293T"
label_class = "true (1)"

[[record]]
compound = "Cc1ccccc1C(=O)Nc1ccc(C(=O)N2CCCC(N(C)C)c3ccccc32)cc1.Cl (configuration not stated)"
target_entity = "HEK-293T"
label_class = "false (0)"

[[record]]
compound = "CSc1ccccc1N1CCN(CCCCCC(=O)NC2CCCc3ccccc32)CC1.Cl (configuration not stated)"
target_entity = "HEK-293T"
label_class = "false (0)"

[[record]]
compound = "Cl.Clc1ccc2nsnc2c1NC1=NCCN1 [TIZANIDINE HYDROCHLORIDE]"
target_entity = "HEK-293T"
label_class = "true (1)"

[[record]]
compound = "COc1ccccc1N1CCN(CCCCNC(=O)c2ccc3ccccc3c2)CC1.Cl"
target_entity = "HEK-293T"
label_class = "false (0)"

[[record]]
compound = "Cc1ccc(-c2ccc(F)cc2COc2ccc(CCC(=O)O)cc2)cc1"
target_entity = "HEK-293T"
label_class = "true (1)"

[[record]]
compound = "CCCN1CCC[C@@H]2Cc3n[nH]cc3C[C@H]21.Cl [QUINPIROLE HYDROCHLORIDE]"
target_entity = "HEK-293T"
label_class = "false (0)"


====

- Test system: U2OS
- ASSAY EXPLANATION: Multiplex assay against U2OS
- Assay type: toxicity, cell-based
- CONDITION CONTEXT: human, 24 h, 10 µM, compound concentration 10 uM, replicate 2
READOUT NAME: Population Mitotic Cells (%)

[[record]]
compound = "CCNC1(C(N)=O)CCN(c2ncnc3c2nc(-c2ccccc2Cl)n3-c2ccc(Cl)cc2)CC1"
readout_name = "Population Mitotic Cells (%)"
numeric_value = 20

[[record]]
compound = "CNC[C@H](O)c1ccc(O)c(O)c1 [EPINEPHRINE]"
readout_name = "Population Mitotic Cells (%)"
numeric_value = 0

[[record]]
compound = "CCCn1c(=O)c2[nH]c(C3CCCC3)nc2n(CCC)c1=O"
readout_name = "Population Mitotic Cells (%)"
numeric_value = 0

[[record]]
compound = "N[C@@]1(C(=O)O)CO[C@H]2[C@H](C(=O)O)[C@H]21"
readout_name = "Population Mitotic Cells (%)"
numeric_value = 10

[[record]]
compound = "Cl.Clc1ccc2nsnc2c1NC1=NCCN1 [TIZANIDINE HYDROCHLORIDE]"
readout_name = "Population Mitotic Cells (%)"
numeric_value = 13

[[record]]
compound = "COc1c(C)cc(NC(=O)c2nn(Cc3ccc(F)cc3)c3c2CN(C(=O)c2ccc[nH]2)C[C@]3(C)C(N)=O)cc1C"
readout_name = "Population Mitotic Cells (%)"
numeric_value = 34

[[record]]
compound = "O=C(O)c1cc2ccccc2c(Cc2c(O)c(C(=O)O)cc3ccccc23)c1O"
readout_name = "Population Mitotic Cells (%)"
numeric_value = 9

[[record]]
compound = "Cc1ccc(F)cc1C(=O)Nc1ccc(C(=O)N2Cc3cccn3Cc3ccccc32)c(Cl)c1"
readout_name = "Population Mitotic Cells (%)"
numeric_value = 33

[[record]]
compound = "COc1cc(C(=O)N(CCCc2ccccc2)Cc2ccc(CC(=O)O)cc2)cc(OC)c1C"
readout_name = "Population Mitotic Cells (%)"
numeric_value = 15

